Recorded values, source patent US5827562A.

# procedure-text: Thermal stability test: open dish in thermostatted oven, decomposition products (DKP, AP) by hplc
# Format: physicochemical
# recorded-conditions: 70 hours, 70° C.
Peptide text beside a SMILES is read from it.
assay-readout: Increase in DKP content (wt. %)
# number only, unit wt. % dropped from output

In: Name the recorded Increase in DKP content for CC1=CC(=O)NS(=O)(=O)O1.COC(=O)[C@H](Cc1ccccc1)NC(=O)[C@@H](N)CC(=O)O [exp. 2a., 1:1 salt of APM and acesulfamic acid] (H-Asp-Phe-OMe) .
Out: 0

In: Name the recorded Increase in DKP content for CC1=CC(=O)NS(=O)(=O)O1.COC(=O)[C@H](Cc1ccccc1)NC(=O)[C@@H](N)CC(=O)O [comp. exp. 1C, 1:1 salt of APM and acesulfamic acid] (H-Asp-Phe-OMe) .
Out: 1.27

In: Name the recorded Increase in DKP content for COC(=O)[C@H](Cc1ccccc1)NC(=O)[C@@H](N)CC(=O)O.O=C1NS(=O)(=O)c2ccccc21 [comp. exp. 1A, 1:1 salt of APM and SacH] (H-Asp-Phe-OMe) .
Out: 0

In: Name the recorded Increase in DKP content for COC(=O)[C@H](Cc1ccccc1)NC(=O)[C@@H](N)CC(=O)O [APM granulate, reference compound] (H-Asp-Phe-OMe) .
Out: 0.75

In: Name the recorded Increase in DKP content for CC1=CC(=O)NS(=O)(=O)O1.COC(=O)[C@H](Cc1ccccc1)NC(=O)[C@@H](N)CC(=O)O [comp. exp. 1D, 1:1 salt of APM and acesulfamic acid] (H-Asp-Phe-OMe) .
Out: 0.52
